- measuredOn: Tyrosine-protein kinase JAK2 (Homo sapiens) (UniProt O60674)
- Sequence (O60674 whole entry): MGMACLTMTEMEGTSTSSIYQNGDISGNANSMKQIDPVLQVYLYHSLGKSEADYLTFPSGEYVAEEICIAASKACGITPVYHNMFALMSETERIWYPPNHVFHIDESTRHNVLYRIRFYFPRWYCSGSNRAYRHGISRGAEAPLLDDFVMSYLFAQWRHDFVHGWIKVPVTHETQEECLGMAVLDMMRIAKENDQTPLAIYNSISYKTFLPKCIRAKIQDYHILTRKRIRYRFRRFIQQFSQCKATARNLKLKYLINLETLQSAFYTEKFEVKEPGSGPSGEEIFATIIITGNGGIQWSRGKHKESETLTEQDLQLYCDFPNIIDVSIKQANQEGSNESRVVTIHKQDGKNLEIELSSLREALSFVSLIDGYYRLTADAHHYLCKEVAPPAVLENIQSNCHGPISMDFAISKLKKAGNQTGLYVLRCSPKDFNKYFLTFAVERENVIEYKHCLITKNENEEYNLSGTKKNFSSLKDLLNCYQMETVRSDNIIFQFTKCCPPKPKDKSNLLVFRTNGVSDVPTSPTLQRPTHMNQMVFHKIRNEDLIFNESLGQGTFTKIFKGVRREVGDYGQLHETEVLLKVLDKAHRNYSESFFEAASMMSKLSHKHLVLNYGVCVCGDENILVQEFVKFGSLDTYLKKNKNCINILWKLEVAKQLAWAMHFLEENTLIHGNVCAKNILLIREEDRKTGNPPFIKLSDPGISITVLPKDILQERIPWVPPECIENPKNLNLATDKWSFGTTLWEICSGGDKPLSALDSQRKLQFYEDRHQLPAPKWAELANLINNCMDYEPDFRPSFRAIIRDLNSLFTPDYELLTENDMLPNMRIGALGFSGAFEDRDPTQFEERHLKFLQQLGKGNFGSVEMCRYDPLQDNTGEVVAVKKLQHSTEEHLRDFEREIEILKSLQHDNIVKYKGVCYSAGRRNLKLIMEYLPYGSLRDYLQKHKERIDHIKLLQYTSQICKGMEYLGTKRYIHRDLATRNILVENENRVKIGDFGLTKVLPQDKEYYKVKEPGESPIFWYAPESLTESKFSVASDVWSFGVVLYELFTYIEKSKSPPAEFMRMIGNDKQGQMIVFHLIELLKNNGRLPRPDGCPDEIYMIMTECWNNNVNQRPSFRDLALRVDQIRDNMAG
- conditionContext: at 1 µM
Outcome label depends on inhibition relative to 3%: at/above gives 1, below gives 0.

{"columns": ["smilesNotation", "classLabel"],
 "data": [
  ["N#Cc1c(NC(=O)c2ccc(F)cc2)sc2c1CCCC2", 0],
  ["CCc1nn2ncccc2c1-c1ccnc(NC2CC2)n1", 0],
  ["N#Cc1c(NC(=O)CN2CCOCC2)sc2c1CCCC2", 1],
  ["NC(=O)c1sc(-n2cnc3ccc(C(F)(F)F)cc32)cc1OCc1ccccc1Br", 1],
  ["CN1CCC(n2cnc(-c3ccc(F)cc3)c2-c2ccnc(N)n2)CC1", 0],
  ["CCn1c(-c2nonc2N)nc2c(C#CC(C)(C)O)ncc(OC3CCNCC3)c21", 0],
  ["CC(C)COC(=O)c1ccc2c(c1)/C(=C/Nc1ccc(S(N)(=O)=O)cc1)C(=O)N2", 1],
  ["COc1cccc(-n2ncc3c(N/N=C/c4ccc(F)cc4)ncnc32)c1", 1],
  ["Nc1nc(-c2ccc(F)cc2)c(-c2ccc3ncccc3n2)s1", 1],
  ["CCN(CC)S(=O)(=O)c1ccc(OC)c(Nc2ncc(-c3ccccc3)o2)c1", 0],
  ["COc1cc(/C=N/Nc2ncnc3[nH]ncc23)ccc1O", 1],
  ["COC(=O)Nc1nc2ccc(S(=O)(=O)c3ccc(NC(=O)Nc4cc(C(F)(F)F)ccc4F)cc3)cc2[nH]1", 0],
  ["Fc1ccc(-c2nn3ncccc3c2-c2ccnc(Nc3ccc4c(c3)OCCO4)n2)cc1", 0],
  ["COc1ccc(-c2cc(-c3c[nH]nc3-c3ccccn3)ccn2)cc1", 1],
  ["CCCN1CCC(c2ccc(Nc3nc(Nc4cc(F)ccc4C(N)=O)c4cc[nH]c4n3)c(OC)c2)CC1", 0],
  ["NS(=O)(=O)c1ccc(N/N=C2\\C(=O)Nc3ccc4ncccc4c32)cc1", 1],
  ["CCOc1ccc2c(-c3ccnc(Nc4cccc(C(F)(F)F)c4)n3)cnn2n1", 0]
]}

* * *

- measuredOn: Receptor tyrosine-protein kinase erbB-2 (Homo sapiens) (UniProt P04626)
- Sequence (P04626 whole entry): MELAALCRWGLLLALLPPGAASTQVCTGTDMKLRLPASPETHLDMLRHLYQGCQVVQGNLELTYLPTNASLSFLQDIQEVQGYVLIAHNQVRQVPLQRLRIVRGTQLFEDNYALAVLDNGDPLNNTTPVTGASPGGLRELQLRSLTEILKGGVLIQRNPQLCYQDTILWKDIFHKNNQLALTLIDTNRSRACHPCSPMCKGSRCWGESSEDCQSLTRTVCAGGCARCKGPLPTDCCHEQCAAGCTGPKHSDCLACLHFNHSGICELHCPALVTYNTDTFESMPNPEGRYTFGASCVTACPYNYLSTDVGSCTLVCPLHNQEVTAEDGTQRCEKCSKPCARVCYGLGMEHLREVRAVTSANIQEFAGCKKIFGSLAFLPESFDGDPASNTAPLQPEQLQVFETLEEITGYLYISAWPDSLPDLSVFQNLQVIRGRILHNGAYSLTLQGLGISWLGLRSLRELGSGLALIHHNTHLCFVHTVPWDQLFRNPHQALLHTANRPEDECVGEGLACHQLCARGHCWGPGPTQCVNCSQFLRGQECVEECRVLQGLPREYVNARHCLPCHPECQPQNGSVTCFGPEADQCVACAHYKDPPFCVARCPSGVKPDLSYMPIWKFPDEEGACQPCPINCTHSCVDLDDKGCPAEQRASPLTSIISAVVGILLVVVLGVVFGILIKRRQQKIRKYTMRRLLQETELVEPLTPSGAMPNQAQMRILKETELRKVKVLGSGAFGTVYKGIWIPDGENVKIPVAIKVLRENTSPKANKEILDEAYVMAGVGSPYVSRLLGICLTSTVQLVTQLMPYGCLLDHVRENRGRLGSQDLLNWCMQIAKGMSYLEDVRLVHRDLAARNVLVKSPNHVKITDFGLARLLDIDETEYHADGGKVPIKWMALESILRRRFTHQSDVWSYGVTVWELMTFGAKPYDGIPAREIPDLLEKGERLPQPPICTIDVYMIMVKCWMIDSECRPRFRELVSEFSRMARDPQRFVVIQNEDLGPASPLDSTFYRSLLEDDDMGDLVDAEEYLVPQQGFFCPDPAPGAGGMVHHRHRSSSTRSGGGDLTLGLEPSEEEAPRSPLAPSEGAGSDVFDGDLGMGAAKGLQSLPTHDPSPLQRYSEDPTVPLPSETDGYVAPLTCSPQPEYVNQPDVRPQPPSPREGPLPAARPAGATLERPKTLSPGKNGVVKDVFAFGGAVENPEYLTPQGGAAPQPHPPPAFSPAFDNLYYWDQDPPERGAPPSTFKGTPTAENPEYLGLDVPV
- conditionContext: at 1 µM
- Description: GSK_PKIS: ERBB2 mean inhibition at 1 uM [Nanosyn]

{"columns": ["compound", "inhibition"],
 "data": [
  ["CC(=O)NCc1cccc(C#Cc2cncnc2Nc2ccc(OCc3cccc(F)c3)c(Cl)c2)c1", "-0.83%"],
  ["CCOc1ccc2c(-c3ccnc(Nc4cccc(C(F)(F)F)c4)n3)cnn2n1", "2.54%"],
  ["Fc1ccc(-c2cc(-c3c[nH]nc3-c3ccccn3)ccn2)cc1", "6.84%"],
  ["CC1=C(C(=O)Nc2cc(Cl)c3[nH]ncc3c2)C(c2ccc(C(F)(F)F)cc2)CC(=O)N1 (stereo not given)", "1.78%"],
  ["CS(=O)(=O)CCNCc1ccc(-c2ccc3ncnc(Nc4ccc(OCc5ccccc5)c(C(F)(F)F)c4)c3c2)o1", "10.4%"]
]}

* * *

- Tested on: Epidermal growth factor receptor (Homo sapiens), P00533 [L858R]
- Sequence (P00533 whole entry L858R): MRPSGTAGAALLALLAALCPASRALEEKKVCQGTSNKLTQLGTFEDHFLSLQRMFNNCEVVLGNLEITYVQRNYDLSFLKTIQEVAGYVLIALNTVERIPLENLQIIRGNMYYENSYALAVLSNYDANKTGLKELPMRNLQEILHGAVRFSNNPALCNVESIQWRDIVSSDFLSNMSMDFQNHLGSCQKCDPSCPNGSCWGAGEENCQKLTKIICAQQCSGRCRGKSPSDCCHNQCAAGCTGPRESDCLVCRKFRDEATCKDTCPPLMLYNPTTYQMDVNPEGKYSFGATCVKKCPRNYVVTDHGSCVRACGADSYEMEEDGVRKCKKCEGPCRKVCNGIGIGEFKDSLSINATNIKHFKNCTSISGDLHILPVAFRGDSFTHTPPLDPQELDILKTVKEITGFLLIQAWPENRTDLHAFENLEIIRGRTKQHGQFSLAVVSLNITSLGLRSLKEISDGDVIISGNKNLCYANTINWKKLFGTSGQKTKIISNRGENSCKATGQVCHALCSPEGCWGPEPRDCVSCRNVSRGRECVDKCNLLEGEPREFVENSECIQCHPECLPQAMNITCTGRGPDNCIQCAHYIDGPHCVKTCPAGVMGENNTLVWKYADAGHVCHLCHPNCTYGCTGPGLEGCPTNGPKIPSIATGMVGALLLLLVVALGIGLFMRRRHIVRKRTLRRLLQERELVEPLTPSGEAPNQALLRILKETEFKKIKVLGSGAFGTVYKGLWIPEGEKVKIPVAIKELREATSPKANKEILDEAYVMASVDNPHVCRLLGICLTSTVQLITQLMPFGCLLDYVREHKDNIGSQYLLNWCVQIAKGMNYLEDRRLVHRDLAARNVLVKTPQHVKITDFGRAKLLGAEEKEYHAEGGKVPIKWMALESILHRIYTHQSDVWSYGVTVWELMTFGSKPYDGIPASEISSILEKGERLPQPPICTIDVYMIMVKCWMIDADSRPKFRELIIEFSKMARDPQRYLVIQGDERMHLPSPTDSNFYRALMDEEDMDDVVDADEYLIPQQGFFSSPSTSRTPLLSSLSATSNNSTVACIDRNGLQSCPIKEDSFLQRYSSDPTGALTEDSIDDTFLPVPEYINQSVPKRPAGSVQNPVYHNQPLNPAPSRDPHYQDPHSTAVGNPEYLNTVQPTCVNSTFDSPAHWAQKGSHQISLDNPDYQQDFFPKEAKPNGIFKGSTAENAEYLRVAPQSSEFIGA
- conditionContext: at 1 µM

{"columns": ["smilesNotation", "measuredOn", "scaleUnit", "inhibition"],
 "data": [
  ["CS(=O)(=O)CCNCc1coc(-c2ccc3ncnc(Nc4ccc(OCc5ccccc5)cc4)c3c2)c1", "Epidermal growth factor receptor (Homo sapiens), P00533 [L858R]", "%", 82.5],
  ["CCc1nn2ncccc2c1-c1ccnc(NC2CC2)n1", "Epidermal growth factor receptor (Homo sapiens), P00533 [L858R]", "%", 0.95],
  ["CCN1CCC(CC(=O)Nc2n[nH]c3nnc(-c4cccc(F)c4F)cc23)CC1", "Epidermal growth factor receptor (Homo sapiens), P00533 [L858R]", "%", 3.4],
  ["Fc1cccc(COc2ccc(Nc3ncnc4sc(-c5ccco5)cc34)cc2Cl)c1", "Epidermal growth factor receptor (Homo sapiens), P00533 [L858R]", "%", 54.8],
  ["CC(C)(CO)CNC(=O)c1ccc2c(c1)/C(=N/Nc1ccc(S(N)(=O)=O)cc1)C(=O)N2", "Epidermal growth factor receptor (Homo sapiens), P00533 [L858R]", "%", -0.53],
  ["CNC(=O)c1cccc(C#Cc2cncnc2Nc2ccc(OCc3cccc(F)c3)c(Cl)c2)c1", "Epidermal growth factor receptor (Homo sapiens), P00533 [L858R]", "%", 62.1],
  ["CCN(CC)S(=O)(=O)c1ccc(OC)c(Nc2ncc(-c3ccccc3)o2)c1", "Epidermal growth factor receptor (Homo sapiens), P00533 [L858R]", "%", 11.6],
  ["CN1CCC(n2cnc(-c3ccc(F)cc3)c2-c2ccnc(N)n2)CC1", "Epidermal growth factor receptor (Homo sapiens), P00533 [L858R]", "%", 16.5],
  ["c1ccc(-c2nc3n(c2-c2ccc4c(c2)OCO4)CCC3)nc1", "Epidermal growth factor receptor (Homo sapiens), P00533 [L858R]", "%", -1.2],
  ["Cc1ccc2c(-c3ccnc(Nc4ccccc4)n3)c(-c3ccc(F)cc3)nn2n1", "Epidermal growth factor receptor (Homo sapiens), P00533 [L858R]", "%", 97.4],
  ["NS(=O)(=O)c1ccc(N/N=C2\\C(=O)Nc3ccc4ncccc4c32)cc1", "Epidermal growth factor receptor (Homo sapiens), P00533 [L858R]", "%", 2.75],
  ["COc1cc(Nc2nccc(Nc3ccc4c(C)n[nH]c4c3)n2)cc(OC)c1OC", "Epidermal growth factor receptor (Homo sapiens), P00533 [L858R]", "%", 29.9],
  ["CCn1c(-c2nonc2N)nc2ccccc21", "Epidermal growth factor receptor (Homo sapiens), P00533 [L858R]", "%", 0.86],
  ["CC(=O)NCc1cccc(C#Cc2cncnc2Nc2ccc(OCc3cccc(F)c3)c(Cl)c2)c1", "Epidermal growth factor receptor (Homo sapiens), P00533 [L858R]", "%", 54.2],
  ["Clc1ccc(-c2nn3ncccc3c2-c2ccnc(Nc3ccccc3)n2)cc1", "Epidermal growth factor receptor (Homo sapiens), P00533 [L858R]", "%", 87.6],
  ["COc1cccc(-n2ncc3c(N/N=C/c4ccc(F)cc4)ncnc32)c1", "Epidermal growth factor receptor (Homo sapiens), P00533 [L858R]", "%", 34.9],
  ["CCn1cc(-c2ccnc3[nH]ccc23)c(-c2cccc(NC(=O)Nc3ccc(OCc4ccccc4)cc3)c2)n1", "Epidermal growth factor receptor (Homo sapiens), P00533 [L858R]", "%", -3.23],
  ["CCCN1CCC(c2ccc(Nc3nc(Nc4cc(F)ccc4C(N)=O)c4cc[nH]c4n3)c(OC)c2)CC1", "Epidermal growth factor receptor (Homo sapiens), P00533 [L858R]", "%", 46.4],
  ["CNC(=O)c1cncc(/C=C/c2ccccc2Cl)c1", "Epidermal growth factor receptor (Homo sapiens), P00533 [L858R]", "%", 10.9],
  ["Fc1ccc(-c2nn3ncccc3c2-c2ccnc(Nc3ccc4c(c3)OCCO4)n2)cc1", "Epidermal growth factor receptor (Homo sapiens), P00533 [L858R]", "%", 98.4],
  ["CS(=O)(=O)CCNCc1ccc(-c2ccc3ncnc(Nc4ccc(OCc5ccccc5)c(C(F)(F)F)c4)c3c2)o1", "Epidermal growth factor receptor (Homo sapiens), P00533 [L858R]", "%", 50.1]
]}

* * *

- measuredOn: Tyrosine-protein kinase Lyn (Homo sapiens)
- conditionContext: at 0.1 µM
- Description: GSK_PKIS: LYN A (splice variant) mean inhibition at 0.1 uM [Nanosyn]

{"columns": ["smilesNotation", "inhibition / %"],
 "data": [
  ["O=C(O[C@H]1CN[C@H](C#Cc2cc3ncnc(Nc4ccc(Cc5ccccc5)cc4)c3s2)C1)N1CCOCC1", 0.85],
  ["COc1ccc(-c2cc3c(N)ncnc3o2)cc1", -0.81],
  ["Nc1nc(-c2ccc(F)cc2)c(-c2ccc3ncccc3n2)s1", 9.43],
  ["CC(=O)Nc1cccc(C#Cc2cncnc2Nc2ccc(OCc3cccc(F)c3)c(Cl)c2)c1", 1.26],
  ["COC(=O)c1sc(-n2cnc3cc(OC)c(OC)cc32)cc1OCc1ccccc1C(F)(F)F", 9.46]
]}

* * *

- measuredOn: Dual specificity protein kinase CLK2 (Homo sapiens) (UniProt P49760)
- Sequence (P49760 whole entry, looked up): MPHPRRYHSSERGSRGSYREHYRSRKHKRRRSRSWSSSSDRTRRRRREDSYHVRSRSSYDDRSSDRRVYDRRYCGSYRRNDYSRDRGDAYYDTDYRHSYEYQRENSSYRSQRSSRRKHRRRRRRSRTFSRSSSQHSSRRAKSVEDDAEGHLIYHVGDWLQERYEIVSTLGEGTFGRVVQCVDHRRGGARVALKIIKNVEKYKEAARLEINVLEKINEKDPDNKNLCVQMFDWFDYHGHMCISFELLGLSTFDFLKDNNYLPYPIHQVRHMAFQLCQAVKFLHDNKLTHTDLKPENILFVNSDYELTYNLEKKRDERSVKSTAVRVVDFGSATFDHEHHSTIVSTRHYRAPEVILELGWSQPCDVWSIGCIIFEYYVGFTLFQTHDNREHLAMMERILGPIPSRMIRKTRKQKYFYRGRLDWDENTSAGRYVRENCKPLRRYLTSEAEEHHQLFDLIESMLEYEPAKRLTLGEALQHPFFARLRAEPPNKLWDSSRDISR
- conditionContext: at 1 µM

{"columns": ["smilesNotation", "measuredOn", "inhibition, %"],
 "data": [
  ["NS(=O)(=O)c1ccc(N/N=C2\\C(=O)Nc3ccc4ncccc4c32)cc1", "Dual specificity protein kinase CLK2 (Homo sapiens) (UniProt P49760)", 72.3],
  ["Clc1ccc(-c2nn3ncccc3c2-c2ccnc(Nc3ccccc3)n2)cc1", "Dual specificity protein kinase CLK2 (Homo sapiens) (UniProt P49760)", 1.58],
  ["CNC(=O)c1cncc(/C=C/c2ccccc2Cl)c1", "Dual specificity protein kinase CLK2 (Homo sapiens) (UniProt P49760)", 0.35],
  ["CCn1c(-c2nonc2N)nc2c(C#CC(C)(C)O)nc(OC[C@H](N)c3ccccc3)cc21", "Dual specificity protein kinase CLK2 (Homo sapiens) (UniProt P49760)", 12.1],
  ["COc1cc(/C=N/Nc2ncnc3[nH]ncc23)ccc1O", "Dual specificity protein kinase CLK2 (Homo sapiens) (UniProt P49760)", 28.6],
  ["COc1ccc(-c2oc3ncnc(N)c3c2-c2ccc(NC(=O)Nc3cc(C(F)(F)F)ccc3F)cc2)cc1", "Dual specificity protein kinase CLK2 (Homo sapiens) (UniProt P49760)", 26.6],
  ["COC(=O)Nc1nc2ccc(S(=O)(=O)c3ccc(NC(=O)Nc4cc(C(F)(F)F)ccc4F)cc3)cc2[nH]1", "Dual specificity protein kinase CLK2 (Homo sapiens) (UniProt P49760)", 1.96],
  ["O=S(=O)(CCNCc1ccc(-c2ccc3ncnc(Nc4ccc(OCc5cccc(F)c5)c(Cl)c4)c3c2)o1)c1ccccc1", "Dual specificity protein kinase CLK2 (Homo sapiens) (UniProt P49760)", 1.31],
  ["COc1ccc(-c2cc3c(N)ncnc3o2)cc1", "Dual specificity protein kinase CLK2 (Homo sapiens) (UniProt P49760)", 2.78],
  ["COc1ccc2c(-c3ccnc(Nc4cccc(OC(F)(F)F)c4)n3)cnn2n1", "Dual specificity protein kinase CLK2 (Homo sapiens) (UniProt P49760)", 98.3]
]}
